- Test system: Escherichia coli TOP10
- PROCEDURE SUMMARY: shrunken log2 fold change of peptide-encoding DNA abundance (4.5 h post-induction vs induction); higher = less antimicrobial activity (less host growth inhibition)
- MEASUREMENT CONTEXT: time post-induction: 4.5 h; library: site-saturation at positions 5, 18, 19, 20
Recorded shrunken log2 fold change, one value per entry.
PROPERTY LABEL: shrunken log2 fold change

BIOSEQUENCE	PROPERTY LABEL	VALUE OBSERVED
RRIRKRPPRLPRPRPRPSEYPRP	shrunken log2 fold change	-0.026
RRIRTRPPRLPRPRPRPCKPPRP	shrunken log2 fold change	-0.996
RRIRHRPPRLPRPRPRPALPPRP	shrunken log2 fold change	0.0229
RRIRPRPPRLPRPRPRPWMCPRP	shrunken log2 fold change	-0.366
RRIRQRPPRLPRPRPRPDWDPRP	shrunken log2 fold change	-0.00122
RRIRMRPPRLPRPRPRPVRNPRP	shrunken log2 fold change	0.0163
RRIRYRPPRLPRPRPRPPFTPRP	shrunken log2 fold change	-0.244
RRIRMRPPRLPRPRPRPAGGPRP	shrunken log2 fold change	0.831
RRIRARPPRLPRPRPRPMRCPRP	shrunken log2 fold change	0.162
RRIRLRPPRLPRPRPRPESKPRP	shrunken log2 fold change	0.286
RRIRVRPPRLPRPRPRPDVAPRP	shrunken log2 fold change	-0.0974
RRIRFRPPRLPRPRPRPCIQPRP	shrunken log2 fold change	-0.0483
RRIRGRPPRLPRPRPRPPHLPRP	shrunken log2 fold change	0.558
RRIRQRPPRLPRPRPRPQHLPRP	shrunken log2 fold change	-0.0402
RRIRCRPPRLPRPRPRPSTMPRP	shrunken log2 fold change	-0.509
RRIRMRPPRLPRPRPRPKLQPRP	shrunken log2 fold change	0.273
RRIRQRPPRLPRPRPRPRMYPRP	shrunken log2 fold change	-0.2
RRIRNRPPRLPRPRPRPRYCPRP	shrunken log2 fold change	-0.0932
RRIRKRPPRLPRPRPRPHGWPRP	shrunken log2 fold change	0.865
RRIRQRPPRLPRPRPRPETFPRP	shrunken log2 fold change	-0.0643
RRIRWRPPRLPRPRPRPADCPRP	shrunken log2 fold change	-0.00218
RRIRPRPPRLPRPRPRPRKYPRP	shrunken log2 fold change	-0.352
RRIRQRPPRLPRPRPRPIIHPRP	shrunken log2 fold change	-0.054
RRIRRRPPRLPRPRPRPERYPRP	shrunken log2 fold change	0.00129
RRIRKRPPRLPRPRPRPSSFPRP	shrunken log2 fold change	0.0223
RRIRPRPPRLPRPRPRPIVIPRP	shrunken log2 fold change	-0.328
RRIRLRPPRLPRPRPRPPQNPRP	shrunken log2 fold change	1.26
RRIRSRPPRLPRPRPRPPTFPRP	shrunken log2 fold change	-0.0599
RRIRLRPPRLPRPRPRPGVIPRP	shrunken log2 fold change	-0.298
RRIRRRPPRLPRPRPRPGWNPRP	shrunken log2 fold change	0.257
RRIRLRPPRLPRPRPRPEWPPRP	shrunken log2 fold change	0.549
RRIRQRPPRLPRPRPRPIFNPRP	shrunken log2 fold change	-0.365
RRIRWRPPRLPRPRPRPPRTPRP	shrunken log2 fold change	0.663
RRIRCRPPRLPRPRPRPQTLPRP	shrunken log2 fold change	-0.148

---

- System: Escherichia coli TOP10
- PROCEDURE SUMMARY: shrunken log2 fold change of peptide-encoding DNA abundance (4.5 h post-induction vs induction); higher = less antimicrobial activity (less host growth inhibition)
- MEASUREMENT CONTEXT: time post-induction: 4.5 h; library: site-saturation at positions 5, 18, 19, 20
Using shrunken log2 fold change as the sorting value, the categories are bottom = under 0.1, middle = from 0.1 up to 0.2, top = 0.2 and over

BIOSEQUENCE	CLASS
RRIRKRPPRLPRPRPRPRMVPRP	middle
RRIRKRPPRLPRPRPRPIKPPRP	bottom
RRIRCRPPRLPRPRPRPLSHPRP	bottom
RRIRQRPPRLPRPRPRPKDWPRP	top
RRIRFRPPRLPRPRPRPYKNPRP	bottom
RRIRFRPPRLPRPRPRPVAGPRP	middle
RRIRGRPPRLPRPRPRPKPVPRP	top
RRIRIRPPRLPRPRPRPEAMPRP	middle

---

- Test system: Escherichia coli TOP10
- PROCEDURE SUMMARY: shrunken log2 fold change of peptide-encoding DNA abundance (4.5 h post-induction vs induction); higher = less antimicrobial activity (less host growth inhibition)
- MEASUREMENT CONTEXT: time post-induction: 4.5 h; library: site-saturation at positions 5, 18, 19, 20
PROPERTY LABEL: shrunken log2 fold change

BIOSEQUENCE	PROPERTY LABEL	VALUE OBSERVED
RRIRIRPPRLPRPRPRPYEVPRP	shrunken log2 fold change	-0.248
RRIRFRPPRLPRPRPRPGVNPRP	shrunken log2 fold change	0.0431
RRIRQRPPRLPRPRPRPWVVPRP	shrunken log2 fold change	0.0305
RRIRERPPRLPRPRPRPYDKPRP	shrunken log2 fold change	-1.41
RRIRERPPRLPRPRPRPDGVPRP	shrunken log2 fold change	-0.162
RRIRDRPPRLPRPRPRPAIQPRP	shrunken log2 fold change	0.389
RRIRRRPPRLPRPRPRPVDNPRP	shrunken log2 fold change	0.0838
RRIRNRPPRLPRPRPRPFHIPRP	shrunken log2 fold change	-0.0783
RRIRDRPPRLPRPRPRPPSWPRP	shrunken log2 fold change	0.102
RRIRARPPRLPRPRPRPACAPRP	shrunken log2 fold change	0.922
RRIRYRPPRLPRPRPRPADMPRP	shrunken log2 fold change	-0.382
RRIRRRPPRLPRPRPRPSFNPRP	shrunken log2 fold change	-0.192
RRIRERPPRLPRPRPRPYTCPRP	shrunken log2 fold change	-0.398
RRIRERPPRLPRPRPRPICLPRP	shrunken log2 fold change	-0.0493
RRIRFRPPRLPRPRPRPEPEPRP	shrunken log2 fold change	0.864
RRIRIRPPRLPRPRPRPVPNPRP	shrunken log2 fold change	-0.00284
RRIRGRPPRLPRPRPRPYNAPRP	shrunken log2 fold change	-0.332
RRIRMRPPRLPRPRPRPLAKPRP	shrunken log2 fold change	0.791

---

- Test system: Escherichia coli TOP10
- PROCEDURE SUMMARY: shrunken log2 fold change of peptide-encoding DNA abundance (4.5 h post-induction vs induction); higher = less antimicrobial activity (less host growth inhibition)
- MEASUREMENT CONTEXT: time post-induction: 4.5 h; library: site-saturation at positions 5, 18, 19, 20

BIOSEQUENCE	shrunken log2 fold change
RRIRWRPPRLPRPRPRPVGIPRP	-0.198
RRIRVRPPRLPRPRPRPHVNPRP	-0.554
RRIRVRPPRLPRPRPRPPFRPRP	0.421
RRIRNRPPRLPRPRPRPLKMPRP	-0.136
RRIRVRPPRLPRPRPRPESEPRP	0.0921
RRIRERPPRLPRPRPRPTWGPRP	-0.0539
RRIRNRPPRLPRPRPRPAKRPRP	0.27
RRIRMRPPRLPRPRPRPIGEPRP	0.0433
RRIRRRPPRLPRPRPRPVGFPRP	0.362
RRIRERPPRLPRPRPRPSIDPRP	-0.0545
RRIRLRPPRLPRPRPRPLTEPRP	0.098
RRIRSRPPRLPRPRPRPQPFPRP	-0.0168
RRIRMRPPRLPRPRPRPSYTPRP	-0.38
RRIRVRPPRLPRPRPRPELSPRP	0.119
RRIRLRPPRLPRPRPRPGGCPRP	0.177
RRIRRRPPRLPRPRPRPMMEPRP	-0.0732
RRIRVRPPRLPRPRPRPGRVPRP	0.405
RRIRARPPRLPRPRPRPHAIPRP	0.0503
RRIRCRPPRLPRPRPRPHIFPRP	-1.15
RRIRDRPPRLPRPRPRPAWVPRP	0.103
RRIRNRPPRLPRPRPRPFDSPRP	-0.303
RRIRRRPPRLPRPRPRPSNQPRP	0.00316
RRIRDRPPRLPRPRPRPGRVPRP	0.166
RRIRQRPPRLPRPRPRPHDQPRP	0.00277
RRIRQRPPRLPRPRPRPMLMPRP	-0.0108

---

- Test system: Escherichia coli TOP10;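 further: peptides expressed intracellularly from a pBAD plasmid library in pooled LB shake-flask culture, induced with 0.3% L-arabinose, DNA abundance read by NGS, three biological replicates, DESeq2 with apeglm shrinkage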
- PROCEDURE SUMMARY: shrunken log2 fold change of peptide-encoding DNA abundance (4.5 h post-induction vs induction); higher = less antimicrobial activity (less host growth inhibition)
- MEASUREMENT CONTEXT: time post-induction: 4.5 h; library: site-saturation at positions 5, 18, 19, 20

BIOSEQUENCE	STUDY TARGET	shrunken log2 fold change
RRIRMRPPRLPRPRPRPSCMPRP	Escherichia coli TOP10	-0.0641
RRIRPRPPRLPRPRPRPWKGPRP	Escherichia coli TOP10	0.0625
RRIRGRPPRLPRPRPRPFTWPRP	Escherichia coli TOP10	0.725
RRIRDRPPRLPRPRPRPKWCPRP	Escherichia coli TOP10	0.135
RRIRRRPPRLPRPRPRPQDAPRP	Escherichia coli TOP10	0.427
RRIRPRPPRLPRPRPRPCKVPRP	Escherichia coli TOP10	-0.348
RRIRTRPPRLPRPRPRPLEMPRP	Escherichia coli TOP10	0.0834
RRIRARPPRLPRPRPRPFFDPRP	Escherichia coli TOP10	0.107
RRIRLRPPRLPRPRPRPVAFPRP	Escherichia coli TOP10	0.0295
RRIRCRPPRLPRPRPRPTMHPRP	Escherichia coli TOP10	-0.112
RRIRVRPPRLPRPRPRPCCYPRP	Escherichia coli TOP10	-0.272
RRIRIRPPRLPRPRPRPILPPRP	Escherichia coli TOP10	0.0798
RRIRWRPPRLPRPRPRPFVRPRP	Escherichia coli TOP10	-0.127
RRIRMRPPRLPRPRPRPVCVPRP	Escherichia coli TOP10	0.241
RRIRARPPRLPRPRPRPAVDPRP	Escherichia coli TOP10	0.289
RRIRGRPPRLPRPRPRPWMWPRP	Escherichia coli TOP10	0.218
RRIRSRPPRLPRPRPRPQPDPRP	Escherichia coli TOP10	-0.185
RRIRWRPPRLPRPRPRPFLIPRP	Escherichia coli TOP10	-0.488
RRIRWRPPRLPRPRPRPWLAPRP	Escherichia coli TOP10	-0.168
RRIRTRPPRLPRPRPRPMVVPRP	Escherichia coli TOP10	0.0636
RRIRKRPPRLPRPRPRPQIEPRP	Escherichia coli TOP10	0.0198
RRIRHRPPRLPRPRPRPEDLPRP	Escherichia coli TOP10	0.172
RRIRNRPPRLPRPRPRPFQMPRP	Escherichia coli TOP10	-0.673
RRIRHRPPRLPRPRPRPQHQPRP	Escherichia coli TOP10	-0.192
RRIRPRPPRLPRPRPRPFRDPRP	Escherichia coli TOP10	-0.118
RRIRNRPPRLPRPRPRPVSAPRP	Escherichia coli TOP10	0.219
RRIRTRPPRLPRPRPRPYKAPRP	Escherichia coli TOP10	-1.77
RRIRKRPPRLPRPRPRPDGGPRP	Escherichia coli TOP10	0.157
